Values were extracted from patent US10960088B2.

Known μeff of a selection of compounds
test: Effective magnetic moment in solution from magnetic susceptibility (NMR); type: physicochemical; conditions: 5 mM Co^II complex in D2O

# annotated cases, reported μeff shown
COMPOUND: NC(=O)CN1CCOCCOCCN(CC(N)=O)CCOCC1.[Co+2] [[Co(NOPE)]^2+]
μeff: 4.1 µB
//
COMPOUND: NC(=O)CN1CCN(CC(N)=O)CCN(CC(N)=O)CC1.[Co+2] [[Co(TCMT)]^2+]
μeff: 5.2 µB
//
COMPOUND: NC(=O)CN1CCCN(CC(N)=O)CCN(CC(N)=O)CCCN(CC(N)=O)CC1.[Co+2] [[Co(CCRM)]^2+]
μeff: 4.6 µB

Give me measured μeff, please, for this compound: NC(=O)CN1CCN(CC(N)=O)CCN(CC(N)=O)CCN(CC(N)=O)CC1.[Co+2] [[Co(TCMC)]^2+]
4.5 µB
